biological target: BIR3-mediated Caspase-9 inhibition (UniProt Q9R0I6); construct: Nothing is printed for this assay; experiment: Caspase-9 rescue assay (relief of BIR3-mediated Caspase-9 inhibition); details: average EC50, substrate Ac-LEHD-amc, pH 6.5
pEC50: −log10 of the molar value.
ASSAY_METRIC: pEC50

Some compounds with known pEC50 results, for comparison:
>>> result("CNC(C)C(=O)NC(C(=O)N1CSCC1C(=O)NN(c1ccccc1)c1ccccc1)C(C)C (stereo not shown)")
"5.00 to 6.00"
>>> result("CNC(C)C(=O)NC(C(=O)NC(CCCCNS(C)(=O)=O)C(=O)NC1CCCc2ccccc21)C(C)C (stereo not shown)")
"> 6.00"

Report the value of pEC50 obtained on BIR3-mediated Caspase-9 inhibition (UniProt Q9R0I6) for CNC(C)C(=O)NC(C(=O)NC(CCN)C(=O)NC1CCCc2ccccc21)C(C)C (stereo not shown) .
5.00 to 6.00

Report the value of pEC50 obtained on BIR3-mediated Caspase-9 inhibition (UniProt Q9R0I6) for CNC(C)C(=O)NC(C(=O)N1CCCC1C(=O)NN(Cc1ccccc1)Cc1ccccc1)C(C)(C)C (stereo not shown) .
5.00 to 6.00

Report the value of pEC50 obtained on BIR3-mediated Caspase-9 inhibition (UniProt Q9R0I6) for CNC(C)C(=O)NC(C(=O)NC(CCO)C(=O)NC1CCCc2ccccc21)C(C)C (stereo not shown) .
5.00 to 6.00

Report the value of pEC50 obtained on BIR3-mediated Caspase-9 inhibition (UniProt Q9R0I6) for CNC(C)C(=O)NC1CCc2cccc3c2N(C1=O)C(C(=O)NC1CCCc2ccccc21)C3 (stereo not shown) .
5.00 to 6.00

Report the value of pEC50 obtained on BIR3-mediated Caspase-9 inhibition (UniProt Q9R0I6) for CCCCS(=O)(=O)NCCCCC(NC(=O)C(NC(=O)C(C)NC)C(C)C)C(=O)NC1CCCc2ccccc21 (stereo not shown) .
> 6.00

Report the value of pEC50 obtained on BIR3-mediated Caspase-9 inhibition (UniProt Q9R0I6) for CNC(C)C(=O)NC(C(=O)N(CCCCCNC(=O)OCc1ccccc1)CC(=O)NC1CCCc2ccccc21)C(C)C (stereo not shown) .
5.00 to 6.00

Report the value of pEC50 obtained on BIR3-mediated Caspase-9 inhibition (UniProt Q9R0I6) for CNC(C)C(=O)NC(C(=O)N1Cc2ccccc2CC1C(=O)NN(c1ccccc1)c1ccccc1)C(C)C (stereo not shown) .
< 5.00

Report the value of pEC50 obtained on BIR3-mediated Caspase-9 inhibition (UniProt Q9R0I6) for CNC(C)C(=O)NC(C(=O)NC(CCC(=O)OCc1ccccc1)C(=O)NC1CCCc2ccccc21)C(C)C (stereo not shown) .
5.00 to 6.00

Report the value of pEC50 obtained on BIR3-mediated Caspase-9 inhibition (UniProt Q9R0I6) for CNC(C)C(=O)NC(C(=O)NC(CCCCNS(=O)(=O)Cc1ccccc1)C(=O)NC1CCCc2ccccc21)C(C)C (stereo not shown) .
> 6.00

Report the value of pEC50 obtained on BIR3-mediated Caspase-9 inhibition (UniProt Q9R0I6) for CNC(C)C(=O)NC(C(=O)NC(CCCCNS(=O)(=O)c1ccc([N+](=O)[O-])cc1)C(=O)NC1CCCc2ccccc21)C(C)C (stereo not shown) .
> 6.00

Report the value of pEC50 obtained on BIR3-mediated Caspase-9 inhibition (UniProt Q9R0I6) for CNC(C)C(=O)NC(C(=O)NC(C(=O)NC1CCCc2ccccc21)C1CCCCC1)C(C)C (stereo not shown) .
> 6.00

Report the value of pEC50 obtained on BIR3-mediated Caspase-9 inhibition (UniProt Q9R0I6) for CCCNC(C)C(=O)NC(C(=O)N1CCCC1C(=O)NC1CCCc2ccccc21)C(C)(C)C (stereo not shown) .
5.00 to 6.00

Report the value of pEC50 obtained on BIR3-mediated Caspase-9 inhibition (UniProt Q9R0I6) for CNC(C)C(=O)NC(C(=O)N1CSCC1C(=O)NC1CCCc2ccccc21)C(C)C (stereo not shown) .
> 6.00

Report the value of pEC50 obtained on BIR3-mediated Caspase-9 inhibition (UniProt Q9R0I6) for CNC(C)C(=O)NC(C(=O)N1CC2(CC1C(=O)NC1CCCc3ccccc31)SCCS2)C(C)C (stereo not shown) .
5.00 to 6.00

The reported numbers originate from patent US20100190688A1.
